target: cynomolgus serum albumin (cynomolgus, UniProt A2V9Z4 25-608); experiment: Octet HTX (ForteBio), HCAb on AHC sensor, 1:1 fit
Sequence (A2V9Z4 25-608 limits assumed): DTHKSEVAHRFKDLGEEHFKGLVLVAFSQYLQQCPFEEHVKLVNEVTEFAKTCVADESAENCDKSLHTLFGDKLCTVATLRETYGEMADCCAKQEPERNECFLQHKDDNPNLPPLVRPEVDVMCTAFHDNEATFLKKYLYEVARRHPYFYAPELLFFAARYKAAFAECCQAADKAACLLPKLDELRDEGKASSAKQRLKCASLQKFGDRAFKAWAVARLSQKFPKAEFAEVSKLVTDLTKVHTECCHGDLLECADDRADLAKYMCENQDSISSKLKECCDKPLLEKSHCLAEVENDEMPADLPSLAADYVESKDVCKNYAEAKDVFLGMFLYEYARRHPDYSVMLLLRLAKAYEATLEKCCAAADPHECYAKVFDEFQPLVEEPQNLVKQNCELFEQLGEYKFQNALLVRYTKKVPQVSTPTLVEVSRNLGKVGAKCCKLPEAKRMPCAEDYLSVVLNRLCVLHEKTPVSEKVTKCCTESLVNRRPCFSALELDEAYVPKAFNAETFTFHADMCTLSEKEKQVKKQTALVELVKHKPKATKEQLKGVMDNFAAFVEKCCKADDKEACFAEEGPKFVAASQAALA
Assay readout: koff (s⁻¹)
Give bare numbers, in s⁻¹.

Sample records with koff:
Binder	Assay value
CNG-HSA-106 (VHH) VHH: KVQLLESGGGLVQPGGSLRLSCAASGFTFSSFGMSWVRQAPGKGLEWVSSISGSGSDTLYADSVRGRFTISRDNSKNTLYLQMDSLRAEDTAVYYCTIGGSRSISSQGTLVTVSS	0.00238
CNG-HSA-105 (VHH) VHH: EVQLLESGGGLVQPGGSLRLSCAASGFVFSSFGMSWVRQAPGKGLEWVSSISGSGSDTLYADSVKGRFTISRDNSKNTLYLQMNSLRPEDTAVYYCTIGGSLSRSSQGTLVTVSS	0.00163

Prompt line: Using known records, supply koff for CNG-HSA-113 (VHH) VHH: GVQLLESGGGLVQPGGSLRLSCAASGFTFSSFGMSWVRQAPGKGLEWVSSISGTGSDTLYADSVKGRFTISRDNSKNTLYLQMNSLRPEDTAVYYCTIGGSLRYSSQGTLVTVSS
Response line: 0.0017
